Each recorded value in this set is attributed to BindingDB's records for doi:10.1021/np970367q.

# Method: Inhibition of bovine brain PI-PLCgamma1 at 125 ug/mL
pIC50: −log10 of the molar value.
Each entry below carries its recorded pIC50.

Molecule	pIC50
CCCCCC/C=C\CCCCCCCCCc1cccc(O)c1 [3-[10'(Z)-heptadecenyl]phenol]	4.02
CCCCCC/C=C\CCCCCCCCCc1cccc(O)c1C(=O)O [6-[10'(Z)-heptade-cenyljsalicylic acid]	4.13
CCCCCCCCCCCCCCCc1cccc(O)c1 [3-pentadecylphenol]	4.03
CCCCCC/C=C\CCCCCCCc1cccc(O)c1C(=O)O [6-{8(Z)-pentadecenyl}salicylic acid]	4.12
CCCCCCCCCCCCCc1cccc(O)c1 [3-tridecyl phenol]	4.06
